systemTested: T1, human GLP-1 receptor (human), P43220
T1 chain: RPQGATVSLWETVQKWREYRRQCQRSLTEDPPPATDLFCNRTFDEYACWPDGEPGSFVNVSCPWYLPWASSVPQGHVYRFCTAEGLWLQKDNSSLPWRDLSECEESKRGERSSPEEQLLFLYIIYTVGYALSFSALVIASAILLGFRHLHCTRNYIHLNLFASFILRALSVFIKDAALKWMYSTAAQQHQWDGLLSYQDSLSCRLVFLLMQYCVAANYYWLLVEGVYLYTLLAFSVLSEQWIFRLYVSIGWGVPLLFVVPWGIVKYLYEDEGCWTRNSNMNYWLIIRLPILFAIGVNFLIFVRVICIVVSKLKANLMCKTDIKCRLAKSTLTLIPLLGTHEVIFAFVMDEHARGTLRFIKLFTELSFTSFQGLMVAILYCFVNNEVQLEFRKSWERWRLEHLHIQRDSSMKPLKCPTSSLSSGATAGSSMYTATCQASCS
measurementDescription: cell-based or functional assay
*1 amine or outer side, *2 acyl side, *3 side chain or, on linkers, in order; H or OH if unused. Where no end group is shown, it is not given here. Side-chain parts run from the residue outwards. [ ]: non-standard residue; d: D form. The star is where a group is joined. C20 diacid = O=C(O)CCCCCCCCCCCCCCCCCCC(=O)*; γGlu = O=C(O)[C@H](CCC(=O)[*:2])N[*:1]; αMeL = CC(C)C[C@](C)(N)C(=O)O; AEEA = NCCOCCOCC(=O)O; Aib = CC(C)(N)C(=O)O
Entries and their cAMP EC50 (FBS and BSA present)
assayReadout: cAMP EC50 (FBS and BSA present) (nM)

[[record]]
binder = "Y[Aib]QGTFTSDYSI[αMeL]LDKK([AEEA-AEEA-γGlu-C20 diacid])AQHAFIEYLLEGGPSSGAPPPS-NH2 [Example 7]"
measuredvalue = 15.5

[[record]]
binder = "Y[Aib]QGTFTSDYSILLDKK([AEEA-AEEA-γGlu-C20 diacid])AQ[Aib]AFIEYLLEGGPSSGAPPPS-NH2 [Example 16]"
measuredvalue = 19

[[record]]
binder = "Y[Aib]QGTFTSDYSI[αMeL]LDKK([AEEA-AEEA-γGlu-C20 diacid])AAQAFIEYLLEGGPSSGAPPPS-NH2 [Example 6]"
measuredvalue = 21.2

[[record]]
binder = "Y[Aib]QGTFTSDYSILLDKK([AEEA-γGlu-C20 diacid])AQ[Aib]AFIEYLLEGGPSSGAPPPS-NH2 [Example 18]"
measuredvalue = 16.1

[[record]]
binder = "Y[Aib]QGTFTSDYSI[αMeL]LDKK([AEEA-γGlu-C20 diacid])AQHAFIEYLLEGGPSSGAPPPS-NH2 [Example 10]"
measuredvalue = 19.3


// data source = patent US20250313605A1
